Data provenance: the supplement of paper PMC4466140

# TESTED_TARGET: ScHof1
# ASSAY_PROCEDURE: SPOT peptide array binding signal intensity (averaged, normalized) (arbitrary units (background-subtracted, floor 0; scale differs between SH3 domains)); higher = stronger binding of the SH3 domain to the peptide
REPORTED_ENDPOINT: SPOT peptide array binding signal intensity
Enter the number alone.

Worked cases, SPOT peptide array binding signal intensity given:
{"BINDER": "ALKQKKIPPPFKPHL", "TEST_VALUE": 1}
{"BINDER": "NIKVLLNPKLGKPVK", "TEST_VALUE": 1.25}
{"BINDER": "TPEIPPPLPPKIMVH", "TEST_VALUE": 722}

Next item in the queue.
Problem: Entry ATKSASPTLPTRRSR has what SPOT peptide array binding signal intensity?
Result: 3.5
